- tested.target: human orexin-2 receptor (hOX2R) (Homo sapiens (Human))
- Sequence (O43614 whole entry): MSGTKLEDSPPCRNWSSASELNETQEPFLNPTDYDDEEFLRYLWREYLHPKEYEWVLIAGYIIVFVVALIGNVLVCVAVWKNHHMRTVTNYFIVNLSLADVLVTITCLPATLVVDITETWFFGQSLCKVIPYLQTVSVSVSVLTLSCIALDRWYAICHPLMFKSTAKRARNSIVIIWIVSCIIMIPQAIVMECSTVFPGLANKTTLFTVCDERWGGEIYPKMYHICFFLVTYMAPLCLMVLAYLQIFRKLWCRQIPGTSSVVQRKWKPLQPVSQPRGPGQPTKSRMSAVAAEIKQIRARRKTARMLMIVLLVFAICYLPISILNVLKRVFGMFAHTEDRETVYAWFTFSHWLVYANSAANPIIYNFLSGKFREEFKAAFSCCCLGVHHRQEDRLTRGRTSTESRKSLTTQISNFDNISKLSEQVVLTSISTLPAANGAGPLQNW
- test.summary: FLIPR Ca2+ Flux Assay, hOX2R
- experimental.parameters: CHO cells expressing hOX2R; agonist 70 pM Ala-6,12 orexin-A
What pIC50 was measured for each of the following?
The scale used: pIC50 is minus the common logarithm of the concentration in molar units.

Req: Return reported pIC50; argument: `C[C@@H]1CC[C@@H](Oc2cccc3c2CCC[C@@]3(C)O)CN1C(=O)c1ccccc1-n1nccn1`
Resp: 6.91

Req: How about this compound: C[C@@H]1CC[C@@H](Oc2cccc(C(C)(O)C3CCC3)c2)CN1C(=O)c1ccccc1-n1nccn1 (stereo partly shown)
Resp: 7.09

Req: How about this compound: `C[C@@H]1CC[C@@H](Oc2cc([C@](C)(O)C3CC3)ccn2)CN1C(=O)c1ccccc1-n1nccn1`
Resp: 7.85

Req: How about this compound: CC(O)c1cccc(O[C@@H]2CC[C@@H](C)N(C(=O)c3ccccc3-c3ncccn3)C2)c1 (stereo partly shown)
Resp: 6.92

Req: How about this compound: `C[C@@H]1CC[C@@H](Oc2cc([C@@](C)(O)C3CC3)ccn2)CN1C(=O)c1ccccc1-n1nccn1`
Resp: 7.89

Req: How about this compound: C[C@@H]1CC[C@@H](Oc2cccc(C(C)(O)C3CC3)c2)CN1C(=O)c1ccccc1-n1nccn1 (stereo partly shown)
Resp: 7.44

Req: How about this compound: `C[C@@H]1CC[C@@H](Oc2cccc3c2CC[C@@H]3O)CN1C(=O)c1ccccc1-n1nccn1`
Resp: 7.60

###

- tested.target: human orexin-1 receptor (hOX1R) (Homo sapiens)
- test.summary: FLIPR Ca2+ Flux Assay, hOX1R
- experimental.parameters: CHO cells expressing hOX1R; agonist 70 pM Ala-6,12 orexin-A
What log10 of IC50 was measured for each of the following?
Record value = log10 of IC50 given in µM.

Req: Return reported log10 of IC50; argument: `C[C@@H]1CC[C@@H](Oc2cccc(C(C)(C)O)c2)CN1C(=O)c1ccsc1-n1nccn1`
Resp: 1.00

Req: How about this compound: `C[C@@H]1CC[C@@H](Oc2cccc3c2CC[C@H]3O)CN1C(=O)c1ccccc1-n1nccn1`
Resp: 0.86

Req: How about this compound: `C[C@@H]1CC[C@@H](Oc2cccc3c2CCC[C@@]3(C)O)CN1C(=O)c1ccccc1-n1nccn1`
Resp: 1.00

Req: How about this compound: CCC(C)(O)c1ccnc(O[C@@H]2CC[C@@H](C)N(C(=O)c3ccccc3-n3nccn3)C2)c1 (stereo partly shown)
Resp: -0.36

Req: How about this compound: C[C@@H]1CC[C@@H](Oc2cccc(C(C)(O)C3CCC3)c2)CN1C(=O)c1ccccc1-n1nccn1 (stereo partly shown)
Resp: 0.94

Req: How about this compound: `C[C@@H]1CC[C@@H](Oc2cc(C(C)(C)O)ccn2)CN1C(=O)c1ccccc1-n1nccn1`
Resp: 0.00

Req: How about this compound: C[C@@H]1CC[C@@H](Oc2cccc(C(C)(O)C3CCCC3)c2)CN1C(=O)c1ccccc1-n1nccn1 (stereo partly shown)
Resp: 0.53

###

- tested.target: human orexin-1 receptor (hOX1R) (Homo sapiens)
- test.summary: FLIPR Ca2+ Flux Assay, hOX1R
- experimental.parameters: CHO cells expressing hOX1R; agonist 70 pM Ala-6,12 orexin-A
pIC50: −log10 of the molar value.
pIC50 below 6 gives Not met; pIC50 at or above it gives Met.

Req: Threshold query (pIC50 >= 6) on C[C@@H]1CC[C@@H](Oc2cccc(C(C)(O)C3CC3)c2)CN1C(=O)c1ccccc1-n1nccn1 (stereo partly drawn) [Example 15]
Resp: Not met

Req: How about this molecule: C[C@@H]1CC[C@@H](Oc2cc(C(C)(C)O)ccc2F)CN1C(=O)c1ccccc1-n1nccn1 [Example 20]
Resp: Not met

Req: How about this molecule: C[C@@H]1CC[C@@H](Oc2cc([C@](C)(O)C3CC3)ccn2)CN1C(=O)c1ccccc1-n1nccn1 [Example 11]
Resp: Met

Req: How about this molecule: C[C@@H]1CC[C@@H](Oc2nccc(C(C)(C)O)c2F)CN1C(=O)c1ccccc1-n1nccn1 [Example 21]
Resp: Met

Req: How about this molecule: C[C@@H]1CC[C@@H](Oc2ccc3c(c2)C(O)CC3)CN1C(=O)c1ccccc1-n1nccn1 (stereo partly drawn) [Example 24]
Resp: Not met

Req: How about this molecule: C[C@@H]1CC[C@@H](Oc2cccc(C(C)(O)C(F)F)c2)CN1C(=O)c1ccccc1-n1nccn1 (stereo partly drawn) [Example 36]
Resp: Not met

Req: How about this molecule: C[C@@H]1CC[C@@H](Oc2cccc(C(C)(O)C(F)(F)F)c2)CN1C(=O)c1ccccc1-n1nccn1 (stereo partly drawn) [Example 5]
Resp: Not met
